Recorded Plant response rating, Barnyardgrass values for a group of compounds are listed next.
System: barnyardgrass
Experiment: Test A postemergence
Type: in vivo, Echinochloa crusgalli
Conditions: 500 g ai/ha, postemergence, 10 days, visual injury, 0 to 100 scale (0 no effect, 100 complete control)
Just the number.

compound	Plant response rating, Barnyardgrass
Cc1cccc2c1O[C@@H](C)CN2C(=O)c1cccc(-n2cnc(C3COC3)n2)c1	90
CC(C)c1ncn(-c2ccc(OC(F)(F)F)c(C(=O)N3C[C@H](C)Oc4c(Cl)cccc43)c2)n1	80

Quick one: Plant response rating, Barnyardgrass for Cc1ccc(-n2cnc(CO)n2)cc1C(=O)N1C[C@H](C)Oc2c(Cl)cccc21 ?
80

Quick one: Plant response rating, Barnyardgrass for C[C@H]1CN(C(=S)c2cccc(-n3cncn3)c2)c2cccc(Cl)c2O1 ?
70

Quick one: Plant response rating, Barnyardgrass for Cc1cccc2c1OC(C(F)(F)F)CN2C(=O)c1ccnc(-n2cncn2)c1 (stereo not shown) ?
90

Quick one: Plant response rating, Barnyardgrass for COc1cc(C(=O)N2C[C@H](C)Oc3c(Cl)cccc32)cc(-n2cncn2)c1 ?
80

Quick one: Plant response rating, Barnyardgrass for CC(C)c1ncn(-c2cc(C(=O)N3C[C@H](C)Oc4c(Cl)cccc43)c3ccccc3c2)n1 ?
20

----------
Test system: blackgrass
Assay: Test A preemergence
Assay type: in vivo, Alopecurus myosuroides
Settings: Alopecurus myosuroides, pre-emergence, 240 h, 125 g ai/ha, visual injury after 10 days, 0 to 100 scale, 0 is no effect, 100 is complete control, read-out: Plant response rating, Blackgrass
Recorded pest or weed control at 125 g/ha values for a group of compounds are listed next.
Field: numeric (%). Do not append units.

compound	system-under-test	unit-info	pest or weed control at 125 g/ha
COc1ccc(-n2cncn2)cc1C(=O)N1C[C@H](C)Oc2c(C)cccc21	blackgrass	%	80
C[C@H]1CN(C(=O)c2cccc(-c3cnn(C)n3)c2)c2cccc(Cl)c2O1	blackgrass	%	20
COCc1ncn(-c2cccc(C(=O)N3C[C@H](C)Oc4c(C)cccc43)c2)n1	blackgrass	%	50

Here's the next entry for you.
Any idea what pest or weed control at 125 g/ha came out for Cc1ncn(-c2ccc(C)c(C(=O)N3C[C@H](C)Oc4c(Cl)cccc43)c2)n1 (single isomer, unassigned) on blackgrass?
70

----------
Tested on: kochia
Assay: Test C preemergence
Type: in vivo, Bassia scoparia
Conditions: 500 g ai/ha, preemergence; 0 to 100 scale (0 no effect, 100 complete control)
Recorded Kochia plant response rating values for a group of compounds are listed next.
Just the number.

Any idea what Kochia plant response rating came out for COc1ccc(-n2cnc(C3CC3)n2)cc1C(=O)N1C[C@H](C)Oc2c(Cl)cccc21 on kochia?
90

Any idea what Kochia plant response rating came out for Cc1cccc2c1O[C@@H](C)CN2C(=O)c1cccc(-n2cnc(C(C)(C)O)n2)c1 on kochia?
100

Any idea what Kochia plant response rating came out for CC(C)(C)c1ncn(-c2cc(C(=O)N3CC(C(F)(F)F)Oc4c(Cl)cccc43)ccn2)n1 (stereo not shown) on kochia?
40

Any idea what Kochia plant response rating came out for Cc1ccc(-n2cnc(C3(C#N)CCC3)n2)cc1C(=O)N1C[C@H](C)Oc2c(Cl)cccc21 on kochia?
90

----------
Tested on: kochia
Experiment: Test C postemergence
Type: in vivo, Bassia scoparia
Conditions: 125 g ai/ha, postemergence, 10 days; 0 to 100 scale, 0 no effect, 100 complete control
The threshold is inclusive: Plant response rating, Kochia of exactly 80 counts as MET; values below receive NOT MET.

compound	system-under-test	qualitative-label
Cc1c(F)cc(-n2cnc(C(C)C)n2)cc1C(=O)N1C[C@H](C)Oc2c(Cl)cccc21	kochia	MET

Threshold query (Plant response rating, Kochia >= 80) on Cc1cc(-n2cnc(C(C)C)n2)cc(C(=O)N2C[C@H](C)Oc3c(Cl)cccc32)c1Cl
NOT MET

Threshold query (Plant response rating, Kochia >= 80) on C[C@H]1CN(C(=O)c2cc(-n3cncn3)cc3c2OCCO3)c2cccc(Cl)c2O1
NOT MET

Source: patent US20260262643A1
